Attribution: paper PMC12648443

molecular target: P-gp (Homo sapiens); construct: host or cells: MDCK-MDR1 (Madin Darby canine kidney cells carrying the MDR1 gene); test: MDCK-MDR1 bidirectional permeability / efflux assay; type: in vitro ADME; settings: dog, MDCK-MDR1
Quantity: efflux ratio at 120 min
// no unit string in output, number only

[
  {
    "Smiles data": "CC(C)(Oc1cc(C(F)(F)F)cc(C(F)(F)F)c1)C1CC(=O)CC(=O)C1",
    "efflux ratio at 120 min": 2.53
  }
]

Okay, next one:
Indicate the recorded efflux ratio at 120 min value for this compound: O=C1CC(=O)CC(/C=C/c2cc(C(F)(F)F)cc(C(F)(F)F)c2)C1
2.29

###

target: BCRP (Homo sapiens); construct: host or cells: MDCKII-BCRP (canine MDR1 knockout, transfected with BCRP); test: MDCKII-BCRP bidirectional permeability / efflux assay; type: in vitro ADME; settings: dog; MDCKII-BCRP, absence of Ko143
Quantity: Papp B→A at 120 min (×10⁻⁶ cm/s)
Quick reminder: number only, in ×10⁻⁶ cm/s, skip the unit.

[
  {
    "Smiles data": "O=C1CC(=O)CC(/C=C/c2cc(C(F)(F)F)cc(C(F)(F)F)c2)C1",
    "Quantity": "Papp B→A at 120 min",
    "Experimental value": 31.5
  }
]

Now consider the entry below.
Return reported Papp B→A at 120 min. Input compound: CC(C)(Oc1cc(C(F)(F)F)cc(C(F)(F)F)c1)C1CC(=O)CC(=O)C1
19.2

###

Items are presented alongside their recorded viability at 48 h, 30 μM.
assay: In vitro cytotoxicity, CellTiter-Glo, HEK293; type: cell-based; conditions: human, HEK293 cells; 30 μM, 48 h, relative to untreated cells; read-out: Percentage of viable cells observed at 30 μM treatment, HEK293
Form entry: value (%) — number only.

[
  {
    "Smiles data": "O=C1CC(=O)CC(/C=C/c2cc(C(F)(F)F)cc(C(F)(F)F)c2)C1",
    "Endpoint unit": "%",
    "viability at 48 h, 30 μM": 89.6
  }
]

Determine from records and report viability at 48 h, 30 μM for C[C@H](Oc1cc(C(F)(F)F)cc(C(F)(F)F)c1)C1CC(=O)CC(=O)C1
89.6

Look up viability at 48 h, 30 μM of CC(C)(Oc1cc(C(F)(F)F)cc(C(F)(F)F)c1)C1CC(=O)CC(=O)C1 and report it.
91.6

###

target: BCRP (Homo sapiens, UniProt Q9UNQ0); construct: host or cells: MDCKII-BCRP (canine MDR1 knockout, transfected with BCRP); test: MDCKII-BCRP bidirectional permeability / efflux assay; format: in vitro ADME; settings: dog; MDCKII-BCRP, absence of Ko143
Sequence (Q9UNQ0 whole entry): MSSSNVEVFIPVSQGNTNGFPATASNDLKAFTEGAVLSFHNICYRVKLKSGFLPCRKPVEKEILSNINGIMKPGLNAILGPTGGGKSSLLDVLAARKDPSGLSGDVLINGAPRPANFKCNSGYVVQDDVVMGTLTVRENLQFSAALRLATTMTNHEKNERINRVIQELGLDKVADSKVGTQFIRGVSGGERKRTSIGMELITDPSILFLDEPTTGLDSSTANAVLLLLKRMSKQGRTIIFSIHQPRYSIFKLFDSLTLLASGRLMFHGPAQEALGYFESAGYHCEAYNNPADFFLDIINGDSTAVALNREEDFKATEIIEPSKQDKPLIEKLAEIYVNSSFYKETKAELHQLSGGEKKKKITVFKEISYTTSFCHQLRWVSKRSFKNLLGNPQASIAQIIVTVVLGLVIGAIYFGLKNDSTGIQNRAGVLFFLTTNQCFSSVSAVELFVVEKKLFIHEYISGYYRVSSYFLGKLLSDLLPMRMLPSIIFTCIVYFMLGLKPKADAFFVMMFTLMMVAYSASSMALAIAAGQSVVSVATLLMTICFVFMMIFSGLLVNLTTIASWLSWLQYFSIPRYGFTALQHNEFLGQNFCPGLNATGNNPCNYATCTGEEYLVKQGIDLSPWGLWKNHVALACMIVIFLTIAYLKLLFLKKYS
The following compounds are listed with their measured Papp A→B at 120 min values.
Please give a number only; it is taken to be in ×10⁻⁶ cm/s.

Give Papp A→B at 120 min for the following compound: O=C1CC(=O)CC(/C=C/c2cc(C(F)(F)F)cc(C(F)(F)F)c2)C1
0.66

Provide Papp A→B at 120 min value for the following compound: CC(C)(Oc1cc(C(F)(F)F)cc(C(F)(F)F)c1)C1CC(=O)CC(=O)C1
3.62

###

Molecular target: P-gp (Homo sapiens, UniProt P08183)
Construct: host or cells: MDCK-MDR1 (Madin Darby canine kidney cells carrying the MDR1 gene)
Sequence (P08183 whole entry): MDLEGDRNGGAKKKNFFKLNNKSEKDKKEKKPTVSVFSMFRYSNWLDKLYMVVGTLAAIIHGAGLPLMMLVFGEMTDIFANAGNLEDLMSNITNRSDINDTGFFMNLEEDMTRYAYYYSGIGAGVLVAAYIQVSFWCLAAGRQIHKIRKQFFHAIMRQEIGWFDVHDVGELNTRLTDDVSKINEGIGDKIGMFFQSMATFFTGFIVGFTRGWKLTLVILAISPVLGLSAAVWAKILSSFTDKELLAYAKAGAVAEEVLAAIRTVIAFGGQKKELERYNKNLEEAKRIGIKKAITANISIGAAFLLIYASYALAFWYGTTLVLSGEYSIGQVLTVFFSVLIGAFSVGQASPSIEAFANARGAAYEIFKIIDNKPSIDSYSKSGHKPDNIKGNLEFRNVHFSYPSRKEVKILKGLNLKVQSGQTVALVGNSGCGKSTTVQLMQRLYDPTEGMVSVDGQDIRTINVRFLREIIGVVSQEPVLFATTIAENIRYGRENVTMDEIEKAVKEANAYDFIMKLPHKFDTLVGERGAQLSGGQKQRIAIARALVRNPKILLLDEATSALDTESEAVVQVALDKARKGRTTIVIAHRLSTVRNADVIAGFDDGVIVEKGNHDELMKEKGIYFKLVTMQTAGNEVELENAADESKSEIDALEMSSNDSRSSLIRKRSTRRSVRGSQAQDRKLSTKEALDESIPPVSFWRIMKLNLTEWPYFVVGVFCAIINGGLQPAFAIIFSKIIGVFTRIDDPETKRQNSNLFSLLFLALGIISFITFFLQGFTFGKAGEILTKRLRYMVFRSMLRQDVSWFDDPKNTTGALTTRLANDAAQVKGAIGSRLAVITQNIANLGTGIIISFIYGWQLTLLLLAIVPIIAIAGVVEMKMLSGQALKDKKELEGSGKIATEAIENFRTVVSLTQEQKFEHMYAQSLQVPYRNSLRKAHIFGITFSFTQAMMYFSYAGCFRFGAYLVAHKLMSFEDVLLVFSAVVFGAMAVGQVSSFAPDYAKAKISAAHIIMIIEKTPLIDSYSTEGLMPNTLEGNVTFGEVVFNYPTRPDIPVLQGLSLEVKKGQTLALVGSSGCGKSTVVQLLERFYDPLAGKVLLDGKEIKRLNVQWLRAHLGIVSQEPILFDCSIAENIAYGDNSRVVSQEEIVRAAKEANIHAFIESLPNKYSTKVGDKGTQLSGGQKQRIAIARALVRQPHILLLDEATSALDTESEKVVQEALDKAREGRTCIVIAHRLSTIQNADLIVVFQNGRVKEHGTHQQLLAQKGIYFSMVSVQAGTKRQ
Assay: MDCK-MDR1 bidirectional permeability / efflux assay
Format: in vitro ADME
Details: dog, MDCK-MDR1; MDCK-MRD1, absence of zosuquidar; read-out: Papp (A → B)
Protocol: The assay was carried out at Sai Life Sciences. Stock solutions of 6, 20, assay controls loperamide, atenolol, and propanolol (4 and 20 mM), and P-gp inhibitor zosuquidar (10 mM) were prepared in DMSO. […] The MDCK-MDR1 (Madin Darby canine kidney - Multidrug Resistance gene-1) cells were cultured in DMEM media supplemented with 10 % FBS and antibiotics. […] The TTER (Transepithelial-Transendothelial Electrical Resistance) value for each well was recorded (assay TEER >83 Ω.cm^2). […]
Quantity: Papp A→B at 120 min

# return recorded Papp A→B at 120 min for input CN(C)C(=O)C(CCN1CCC(O)(c2ccc(Cl)cc2)CC1)(c1ccccc1)c1ccccc1 [Lop., loperamide, reference compound]
0.2 ×10⁻⁶ cm/s

###

Entries annotated with measured Papp at 18 h, 250 μM
assay: Parallel artificial membrane permeability assay - blood brain barrier (PAMPA-BBB); details: pig, PAMPA, pH 7.5
State the answer as a number, implicitly in ×10⁻⁶ cm/s.

Answered examples (4):
[
  {
    "Compound": "O=C1CC(=O)CC(C2(Oc3cc(C(F)(F)F)cc(C(F)(F)F)c3)CCC2)C1",
    "Endpoint unit": "×10⁻⁶ cm/s",
    "Papp at 18 h, 250 μM": 16.8
  },
  {
    "Compound": "O=C1CC(=O)CC(C(O)Cc2cc(C(F)(F)F)cc(C(F)(F)F)c2)C1 (centres unmarked)",
    "Endpoint unit": "×10⁻⁶ cm/s",
    "Papp at 18 h, 250 μM": 0.25
  },
  {
    "Compound": "CC(C)(Oc1cc(C(F)(F)F)cc(C(F)(F)F)c1)C1CC(=O)CC(=O)C1",
    "Endpoint unit": "×10⁻⁶ cm/s",
    "Papp at 18 h, 250 μM": 11.5
  },
  {
    "Compound": "O=C1CC(=O)CC(/C=C/c2cc(C(F)(F)F)cc(C(F)(F)F)c2)C1",
    "Endpoint unit": "×10⁻⁶ cm/s",
    "Papp at 18 h, 250 μM": 8.46
  }
]

Now consider the entry below.
Give a short answer stating reported Papp at 18 h, 250 μM for C[C@H](Oc1cc(C(F)(F)F)cc(C(F)(F)F)c1)C1CC(=O)CC(=O)C1 .
6.98

###

test: Microsomal metabolic stability, human; assay type: in vitro ADME; details: liver microsomes, pH 7.4, read-out: t1/2 (human)
Quantity: half-life at 1.1 μM (min)
Form entry: value (min) — number only.

Consider the compound O=C1CC(=O)CC(/C=C/c2cc(C(F)(F)F)cc(C(F)(F)F)c2)C1 and give its recorded half-life at 1.1 μM.
53.9

###

experiment: Microsomal metabolic stability, mouse; assay type: in vitro ADME; conditions: liver microsomes, pH 7.4, read-out: t1/2 (mouse)
Each entry below carries its reported half-life at 1.1 μM.
Numbers only here, please. The scale is min.

[
  {
    "Smiles data": "CC(C)(Oc1cc(C(F)(F)F)cc(C(F)(F)F)c1)C1CC(=O)CC(=O)C1",
    "Endpoint unit": "min",
    "half-life at 1.1 μM": 40.7
  }
]

For the next question, use this compound.
Check the records and state half-life at 1.1 μM for O=C1CC(=O)CC(/C=C/c2cc(C(F)(F)F)cc(C(F)(F)F)c2)C1
20.7
